Below: a set of entries, each annotated with reported Ki.
Biological target: human Orexin-2 receptor (Homo sapiens)
Construct: expressed in transfected cells; host or cells: HEK293 cells (transient transfection, Genejuice); membranes
Sequence (O43614 whole entry): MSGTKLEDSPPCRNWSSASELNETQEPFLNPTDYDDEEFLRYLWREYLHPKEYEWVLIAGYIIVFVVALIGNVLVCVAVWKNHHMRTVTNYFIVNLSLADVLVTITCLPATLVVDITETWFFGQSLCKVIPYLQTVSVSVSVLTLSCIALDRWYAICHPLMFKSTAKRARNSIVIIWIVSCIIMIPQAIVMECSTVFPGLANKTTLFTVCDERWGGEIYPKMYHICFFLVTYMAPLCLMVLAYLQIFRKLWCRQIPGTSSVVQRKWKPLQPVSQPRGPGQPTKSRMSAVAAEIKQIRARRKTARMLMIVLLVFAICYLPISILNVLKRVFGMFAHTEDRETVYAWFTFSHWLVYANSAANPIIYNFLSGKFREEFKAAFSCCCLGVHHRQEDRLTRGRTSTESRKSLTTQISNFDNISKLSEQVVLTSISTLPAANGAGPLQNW
Assay: 3H-EMPA radioligand binding assay
Details: 3H-EMPA displacement, membranes of HEK293 cells transfected with human Orexin-2 receptor; KI by Cheng-Prussoff; read-out: OX2 pKi ave (converted)
Please give a number only; it is taken to be in µM.

Consider the compound shown here: COc1ccc(N2C(=O)N(Cc3c(F)cccc3Cl)c3ccccc3S2(=O)=O)cc1OC What is its recorded Ki? 0.000741

Consider the compound shown here: COc1cc(OC)nc(N2C(=O)N(Cc3c(F)cc(OC)cc3F)c3ccccc3S2(=O)=O)c1 What is its recorded Ki? 0.00275
